- Tested on: SK-MEL-28 melanoma
- TEST DESCRIPTION: NCI tumour cell line growth inhibition, 48 h
QUANTITY MEASURED: TGI

compound=Cc1[nH]n(-c2nc3c(c(=O)[nH]2)CCCC3)c(=O)c1CCO quantity_measured=TGI result="> 100 µM"
compound=O=[N+]([O-])c1ccc(-c2ccc(C3=Nn4c(CNc5ccccc5Cl)nnc4SC3)o2)cc1 quantity_measured=TGI result="> 100 µM"
compound="CC(=O)Oc1ccc(C2=Cc3ccc(OC(C)=O)cc3OC2C)cc1 (stereo unspecified)" quantity_measured=TGI result="43.4 µM"
compound=CCCCCC/C=C\CCCCCCCCC(=O)c1cccc(OC)c1OC quantity_measured=TGI result="> 100 µM"
compound=Nc1nccc(-c2c(-c3ccc(F)cc3)nn3cc(C(F)(F)F)ccc23)n1 quantity_measured=TGI result="> 25 µM"
compound=O=C(c1ccc(Cl)cc1)N(C(=O)N1CCCCC1)c1ccccc1 quantity_measured=TGI result="> 100 µM"
compound=OCCCCC#Cc1ccccc1C#Cc1cccc(C(F)(F)F)c1 quantity_measured=TGI result="25 µM"
compound="CC12OC(=O)C(C#N)C1(C)C1C(=O)CCCC12 (stereo unspecified)" quantity_measured=TGI result="> 100 µM"
compound=COC(=O)[C@@H]1CO[C@H](C(C)(C)C)N1C(=O)N1C=CC(=O)C[C@H]1C quantity_measured=TGI result="> 100 µM"
compound="CC1=NN(c2nc(N)nc(C(C)Cl)n2)C(C)(C)C1 (stereo unspecified)" quantity_measured=TGI result="> 100 µM"
compound=CCc1cccc(CC)c1NC(=O)/C(Cl)=C(/Cl)C(=O)O quantity_measured=TGI result="50.9 µM"
